system: ACHN renal; test: NCI tumour cell line growth inhibition, 48 h
metricName: TGI (µM)
// note: answer is a bare numeric in µM

{"molecule": "CN(C)CCn1c(=O)c2ccc3c4c(nn3CCN(C)C)c3ccccc3n(c1=O)c24", "TGI (µM)": 0.765}

Then this molecule:
Field TGI (entry O=C1CC/C(=C\COc2ccc3ccc(=O)oc3c2)O1 ) reads 2.02

* * *

test system: HT29 colon; experiment: NCI tumour cell line growth inhibition, 48 h; in the data active = GI50 below about 0.43 µM; inactive = the rest
Hello, when you answer, please use one of the following outcomes: active, inactive

{"compound": "CCCCCCN1CCN(Cc2ccc(N(CC)CC)cc2)C(=O)C1=O", "category": "inactive"}
{"compound": "O=C1CC/C(=C\\COc2ccc3ccc(=O)oc3c2)O1", "category": "inactive"}
{"compound": "Cc1ccccc1C(C(=O)NC1CCCCC1)N(C(=O)Cn1ccnc1C)c1cccc(F)c1 (stereo not drawn)", "category": "inactive"}
{"compound": "CN(C)CC(NC(NCS)C(=O)NCCNc1ccc(NCCNC(=O)C(NCS)NC(CN(C)C)OCCl)c2c1C(=O)c1c(O)ccc(O)c1C2=O)OCCl (stereo not drawn)", "category": "active"}
{"compound": "COC(=O)[C@@H]1CCCN1C(=O)[C@H]1CCCN1C(=O)[C@@H](Cc1c[nH]c2ccccc12)NC(=S)Nc1cc(C(F)(F)F)cc(C(F)(F)F)c1", "category": "inactive"}
{"compound": "Oc1cc(Cl)ccc1Cc1ccc(Cl)cc1O", "category": "inactive"}
{"compound": "Oc1ccc(CN(Cc2ccc(C(F)(F)F)cc2)Cc2ccc(O)c3ncccc23)c2cccnc12", "category": "active"}
{"compound": "CCC[CH2][Sn]1([CH2]CCC)[O]C(=O)CN=Cc2ccccc2[O]1", "category": "inactive"}

**Query** Which result was noted for this compound in the test: COc1cc2c(cc1OC)-c1c(c3ccc([N+](=O)[O-])cc3c(=O)n1CCCN)C2=O
**Result** inactive

**Query** Which result was noted for this compound in the test: CC(C)CCC[C@@H](C)[C@H]1CCC2C3=CCC4C(=O)C=CC(=O)C4C3CC[C@@]21C (stereo partly drawn)
**Result** inactive

**Query** Which result was noted for this compound in the test: O=[N+]([O-])c1cccc(-c2cc(-c3cc(Br)ccc3O)[nH]n2)c1
**Result** inactive

**Query** Which result was noted for this compound in the test: Cc1ccc(F)cc1NC(=O)c1cc(Cl)ccc1Nc1ccccc1
**Result** inactive

**Query** Which result was noted for this compound in the test: COc1ccc2[nH]cc(-c3nc(-c4c[nH]c5ccncc45)cs3)c2c1
**Result** inactive

Sourced from PubChem BioAssay (NCI)
